Biological target: His6-AspH315–758 (human aspartate/asparagine-β-hydroxylase, AspH) (Homo sapiens)
Construct: N-Terminally His6-tagged human AspH315–758 (His6-AspH315–758) was produced in E. coli BL21 (DE3) cells; made in house; host or cells: E. coli BL21 (DE3), pET-28a(+) vector
Experiment: SPE-MS AspH inhibition assay (LOPAC screen at fixed 20 μM and IC50 dose-response), hydroxylation of cyclic peptide hFX-CP101–119
Format: biochemical
Structures can show the parent of a compound that is named as a salt.
Measure name: inhibition at 20 µM (%)
Value expressed in %; do not type the unit.

response.value for CN1CCN(CCCN2c3ccccc3Sc3ccc(C(F)(F)F)cc32)CC1 [Trifluoperazine dihydrochloride] (field: inhibition at 20 µM) = -68.5

response.value for CC(=O)c1c(O)c(C)c(O)c(Cc2c(O)c3c(c(C(=O)/C=C/c4ccccc4)c2O)OC(C)(C)C=C3)c1O [Rottlerin] (field: inhibition at 20 µM) = 64

response.value for CN(C)CCCN1c2ccccc2Sc2ccc(C(F)(F)F)cc21 [Triflupromazine hydrochloride] (field: inhibition at 20 µM) = -23.1

response.value for Cn1c(=O)c2[nH]cnc2n(C)c1=O [Theophylline] (field: inhibition at 20 µM) = -8.17

response.value for COC(=O)[C@@H]1[C@H]2C[C@H]3c4[nH]c5ccccc5c4CCN3C[C@@H]2CC[C@@H]1O [Yohimbine hydrochloride] (field: inhibition at 20 µM) = -4.13

----------
Target: His6-AspH315–758 (human aspartate/asparagine-β-hydroxylase, AspH) (Homo sapiens, UniProt Q12797)
Construct: N-Terminally His6-tagged human AspH315–758 (His6-AspH315–758) was produced in E. coli BL21 (DE3) cells; made in house; host or cells: E. coli BL21 (DE3), pET-28a(+) vector
Sequence (Q12797 315-758): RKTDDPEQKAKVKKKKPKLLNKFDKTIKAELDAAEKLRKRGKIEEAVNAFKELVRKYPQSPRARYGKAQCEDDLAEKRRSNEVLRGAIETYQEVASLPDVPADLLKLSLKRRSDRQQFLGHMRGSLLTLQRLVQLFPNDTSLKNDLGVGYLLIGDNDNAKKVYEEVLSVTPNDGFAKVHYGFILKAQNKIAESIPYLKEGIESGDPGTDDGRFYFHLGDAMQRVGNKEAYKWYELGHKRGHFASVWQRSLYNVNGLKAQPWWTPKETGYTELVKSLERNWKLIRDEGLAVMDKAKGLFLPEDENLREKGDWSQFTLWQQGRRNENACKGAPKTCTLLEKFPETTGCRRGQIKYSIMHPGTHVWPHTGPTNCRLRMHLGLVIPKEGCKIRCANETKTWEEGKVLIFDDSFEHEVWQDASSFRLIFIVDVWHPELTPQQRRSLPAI
Assay: SPE-MS AspH inhibition assay (LOPAC screen at fixed 20 μM and IC50 dose-response), hydroxylation of cyclic peptide hFX-CP101–119
Type: biochemical
Settings: LOPAC Plate 4, compound at 20 uM
Measure name: % inhibition (%)
Value expressed in %; do not type the unit.

response.value for Cl.Cl.O=c1ccc2[nH]cc(C3=CCNCC3)c2[nH]1 [CP-93129 dihydrochloride hydrate] (field: % inhibition) = -2.28

response.value for O=C(Nc1nc2ccccc2n1CCN1CCOCC1)c1cccc([N+](=O)[O-])c1 [IRAK-1/4 Inhibitor I] (field: % inhibition) = -1.55

response.value for CCN(CC)CCOC(=O)c1cc(Cl)c(N)cc1OC.Cl [SDZ-205,557 hydrochloride] (field: % inhibition) = -2.39

response.value for C[C@H](c1ccc(F)cc1CCCC(=O)O)N(c1cc(F)ccc1F)S(=O)(=O)c1ccc(Cl)cc1 [BMS-299897] (field: % inhibition) = -0.66

response.value for COc1cccc(NC(=O)/C=C/c2ccc(Cl)cc2)c1 [SB-366791] (field: % inhibition) = 0.24

response.value for COc1ccc(CCN(C)CCc2ccc(OC)c(OC)c2)cc1OC.Cl [YS-035 hydrochloride] (field: % inhibition) = -13.70

response.value for Cc1cccc(C(=O)NCN2CCN(c3ccccc3C#N)CC2)c1.O=C(O)/C=C\C(=O)O [PD 168,077 maleate] (field: % inhibition) = 1.73

response.value for CNc1cc(NS(=O)(=O)c2ccc(N)cc2)nc(NC)n1.Cl.Cl [Ro 04-6790 dihydrochloride] (field: % inhibition) = 35.85

response.value for CCN1CCCC1CNC(=O)c1cc(S(N)(=O)=O)ccc1OC (racemic) [(±)-Sulpiride] (field: % inhibition) = -0.19

response.value for COc1ccccc1CN[C@@H]1CCCN[C@@H]1c1ccccc1.Cl.Cl.O [CP-100263 dihydrochloride hydrate] (field: % inhibition) = -15.48
